Reported inhibition (INH) values for the following molecules.
System: Allium cepa
Experiment: Inhibition of hypocotyl length of Allium cepa cv. Valenciana (onion) at 0.1 mM or 1 mM after 5 days relative to untreated control
Assay type: functional

                                   molecule  target_system  result
0  C=C1C(=O)O[C@H]2[C@H]1CCC(=C)[C@@H]1CCC(=C)[C@@]12O    Allium cepa    <20%
1  C=C1C(=O)O[C@H]2[C@H]1CCC(=C)[C@@H]1C[C@@H](O)C(=C)[C@@]12O [5ALPHA-HYDROXYISOZALUZANIN C]    Allium cepa    >40%
2  COc1nc(C)nc(NC(=O)NS(=O)(=O)c2ccccc2OCCCl)n1    Allium cepa    >40%
3  C=C1C(=O)C[C@H]2C(=C)CC[C@H]3C(=C)C(=O)O[C@@H]3[C@@H]12 [DEHYDROZALUZANIN C]    Allium cepa    >40%

Record lookup: for Allium cepa, what inhibition (INH) belongs to `C=C1[C@@H]2[C@H]3OC(=O)C(=C)[C@@H]3CCC(=C)[C@@H]2C[C@H]1O` ?
>40%

Form field - read-out: inhibition (INH); system: Allium cepa; submitted item: `C=C1CC[C@H]2C(=C)CC[C@@H]3[C@H](OC(=O)[C@H]3CO)[C@@H]12`
>40%
